Origin of the recorded values: PubChem BioAssay (NCI)

Test system: DMS 114 small cell lung
Assay: NCI tumour cell line growth inhibition, 48 h
compounds and their reported TGI

- SMILES_REPR: "Cc1cc(NS(=O)(=O)c2ccc(Nc3c4ccccc4nc4c(C(=O)Nc5ccc(S(=O)(=O)N=C(N)N)cc5)cccc34)cc2)no1"
  TGI: "> 100 µM"
- SMILES_REPR: "CC1=NNC(=NCCN(C)C)C/C1=C/c1ccccc1Cl"
  TGI: "> 100 µM"

// moving on: another record for TGI
Item CC#C[C@@]1(O)CCCC[C@@H]1O has what recorded TGI?
> 100 µM

* * *

Test system: MDA-N
Test: NCI tumour cell line growth inhibition, 48 h
Below, each of the molecules is paired with its reported TGI value.

Known TGI results, listed for orientation:
- MOLECULE: "CN(C(=O)C1(C(=O)C=[N+]=[N-])CC1)c1ccccc1"
  TARGET_OR_SYSTEM: "MDA-N"
  VALUE_KIND: "TGI"
  EXPERIMENTAL_RESULT: "> 100 µM"
- MOLECULE: "COC(=O)[C@H](C)N1C(=O)N[C@@H](C(C)C)C1=O"
  TARGET_OR_SYSTEM: "MDA-N"
  VALUE_KIND: "TGI"
  EXPERIMENTAL_RESULT: "> 100 µM"
- MOLECULE: "C/C1=C\\[C@H](C)C[C@H](C)OC(=O)C[C@H](c2ccc(O)cc2)NC(=O)[C@@H](Cc2c(Br)[nH]c3ccccc23)N(C)C(=O)[C@H](C)NC(=O)[C@@H](C)C1"
  TARGET_OR_SYSTEM: "MDA-N"
  VALUE_KIND: "TGI"
  EXPERIMENTAL_RESULT: "2.83 µM"

Request the reported TGI associated with Cc1cccc(C(C)(C)C)c1NC(=O)/C(Cc1nc2ccc([N+](=O)[O-])cc2[nH]c1=O)=N/NC(=O)C[N+](C)(C)C
> 100 µM

Same thing, different molecule: CC(CCC(=O)O)[C@H]1CCC2[C@H]3C(CC[C@@]21C)[C@@]1(C)CCC(O)C[C@H]1C[C@@H]3O (stereo partly specified)
> 100 µM

And for C/C(=C/CO[Si](C)(C)C(C)(C)C)C(=O)N(C)c1ccccc1I ?
31.9 µM
